target.system: Muscarinic acetylcholine receptor M2 (Homo sapiens, UniProt P08172)
Sequence (P08172 whole entry): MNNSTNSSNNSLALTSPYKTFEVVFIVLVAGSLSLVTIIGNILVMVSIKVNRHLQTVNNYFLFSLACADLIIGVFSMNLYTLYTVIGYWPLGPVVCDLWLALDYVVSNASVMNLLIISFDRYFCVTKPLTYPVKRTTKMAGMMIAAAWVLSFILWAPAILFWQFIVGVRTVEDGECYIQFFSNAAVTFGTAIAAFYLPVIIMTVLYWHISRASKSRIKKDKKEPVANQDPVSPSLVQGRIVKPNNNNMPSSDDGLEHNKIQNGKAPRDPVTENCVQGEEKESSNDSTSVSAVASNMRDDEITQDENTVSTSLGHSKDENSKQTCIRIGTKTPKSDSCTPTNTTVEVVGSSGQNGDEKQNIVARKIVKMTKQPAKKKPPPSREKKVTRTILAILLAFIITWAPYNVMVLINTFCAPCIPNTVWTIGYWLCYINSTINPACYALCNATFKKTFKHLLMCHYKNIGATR
property.name: IC50 (µM)

COCc1nc2cnc3cc(-c4c(C)noc4C)c(OC[C@H]4CCNC4)cc3c2n1[C@H](C)c1ccccc1 = 10

* * *

target.system: Histone acetyltransferase KAT2A (Homo sapiens)
test.protocol: GCN5L2 DiscoverX BROMOscan
property.name: Kd (µM)

COCc1nc2cnc3cc(-c4c(C)noc4C)c(OC[C@H]4CCNC4)cc3c2n1[C@H](C)c1ccccc1 = 30

* * *

target.system: Bromodomain-containing protein 7 (Homo sapiens, UniProt Q9NPI1)
Sequence (Q9NPI1 whole entry): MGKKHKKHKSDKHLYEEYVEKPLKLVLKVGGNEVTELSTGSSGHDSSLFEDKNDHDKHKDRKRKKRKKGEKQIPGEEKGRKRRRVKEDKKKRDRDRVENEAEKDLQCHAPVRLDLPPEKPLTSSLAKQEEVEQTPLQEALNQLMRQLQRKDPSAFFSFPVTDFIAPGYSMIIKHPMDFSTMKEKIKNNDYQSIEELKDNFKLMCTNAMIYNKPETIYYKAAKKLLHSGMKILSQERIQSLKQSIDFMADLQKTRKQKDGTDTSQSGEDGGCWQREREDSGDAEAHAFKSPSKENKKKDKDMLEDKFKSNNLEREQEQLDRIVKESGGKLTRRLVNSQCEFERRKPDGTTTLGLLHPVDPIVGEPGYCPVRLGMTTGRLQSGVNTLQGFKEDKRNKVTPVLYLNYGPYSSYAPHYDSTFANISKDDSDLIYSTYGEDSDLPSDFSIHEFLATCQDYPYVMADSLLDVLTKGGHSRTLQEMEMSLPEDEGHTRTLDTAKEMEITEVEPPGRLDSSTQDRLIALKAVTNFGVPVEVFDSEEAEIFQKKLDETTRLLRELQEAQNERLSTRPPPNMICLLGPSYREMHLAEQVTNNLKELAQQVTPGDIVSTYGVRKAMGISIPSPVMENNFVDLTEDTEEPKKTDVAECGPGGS
test.protocol: BRD7 DiscoverX BROMOscan
pKd: −log10 of the molar value.
property.name: pKd

COCc1nc2cnc3cc(-c4c(C)noc4C)c(OC[C@H]4CCNC4)cc3c2n1[C@H](C)c1ccccc1 = 4.52

* * *

target.system: Tyrosine-protein kinase Lck (Homo sapiens)
Sequence (P06239 whole entry): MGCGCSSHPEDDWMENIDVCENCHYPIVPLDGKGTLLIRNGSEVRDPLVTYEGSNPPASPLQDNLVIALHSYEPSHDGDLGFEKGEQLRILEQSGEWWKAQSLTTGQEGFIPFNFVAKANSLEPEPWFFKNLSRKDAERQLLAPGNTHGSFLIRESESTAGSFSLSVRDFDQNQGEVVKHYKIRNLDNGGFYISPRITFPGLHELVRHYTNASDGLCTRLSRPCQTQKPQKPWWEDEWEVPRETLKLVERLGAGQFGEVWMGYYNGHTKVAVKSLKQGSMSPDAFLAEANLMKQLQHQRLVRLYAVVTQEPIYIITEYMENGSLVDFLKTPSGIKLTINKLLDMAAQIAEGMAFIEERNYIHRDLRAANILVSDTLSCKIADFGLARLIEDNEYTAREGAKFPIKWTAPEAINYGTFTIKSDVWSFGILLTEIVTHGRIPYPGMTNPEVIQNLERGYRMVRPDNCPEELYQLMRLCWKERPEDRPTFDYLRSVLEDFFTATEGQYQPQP
pIC50: −log10 of the molar value.
property.name: pIC50

COCc1nc2cnc3cc(-c4c(C)noc4C)c(OC[C@H]4CCNC4)cc3c2n1[C@H](C)c1ccccc1 = < 4.50

* * *

target.system: Muscarinic acetylcholine receptor M1 (Homo sapiens, UniProt P11229)
Sequence (P11229 whole entry): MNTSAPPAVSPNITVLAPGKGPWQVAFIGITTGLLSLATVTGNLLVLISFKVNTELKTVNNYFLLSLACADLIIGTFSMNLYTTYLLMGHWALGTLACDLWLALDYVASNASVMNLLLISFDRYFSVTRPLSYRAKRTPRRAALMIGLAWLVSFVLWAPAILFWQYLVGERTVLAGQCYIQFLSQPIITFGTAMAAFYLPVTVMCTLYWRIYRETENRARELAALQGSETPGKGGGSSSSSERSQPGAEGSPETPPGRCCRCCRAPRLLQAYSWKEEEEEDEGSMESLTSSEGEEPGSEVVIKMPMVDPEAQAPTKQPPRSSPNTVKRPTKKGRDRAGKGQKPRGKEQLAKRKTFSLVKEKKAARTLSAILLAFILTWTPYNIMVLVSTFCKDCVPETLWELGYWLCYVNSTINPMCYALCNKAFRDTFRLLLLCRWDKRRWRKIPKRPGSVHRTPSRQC
property.name: IC50

COCc1nc2cnc3cc(-c4c(C)noc4C)c(OC[C@H]4CCNC4)cc3c2n1[C@H](C)c1ccccc1 [GSK778] = > 50.1 µM

* * *

target.system: UniProt Q92793
Sequence (Q92793 whole entry): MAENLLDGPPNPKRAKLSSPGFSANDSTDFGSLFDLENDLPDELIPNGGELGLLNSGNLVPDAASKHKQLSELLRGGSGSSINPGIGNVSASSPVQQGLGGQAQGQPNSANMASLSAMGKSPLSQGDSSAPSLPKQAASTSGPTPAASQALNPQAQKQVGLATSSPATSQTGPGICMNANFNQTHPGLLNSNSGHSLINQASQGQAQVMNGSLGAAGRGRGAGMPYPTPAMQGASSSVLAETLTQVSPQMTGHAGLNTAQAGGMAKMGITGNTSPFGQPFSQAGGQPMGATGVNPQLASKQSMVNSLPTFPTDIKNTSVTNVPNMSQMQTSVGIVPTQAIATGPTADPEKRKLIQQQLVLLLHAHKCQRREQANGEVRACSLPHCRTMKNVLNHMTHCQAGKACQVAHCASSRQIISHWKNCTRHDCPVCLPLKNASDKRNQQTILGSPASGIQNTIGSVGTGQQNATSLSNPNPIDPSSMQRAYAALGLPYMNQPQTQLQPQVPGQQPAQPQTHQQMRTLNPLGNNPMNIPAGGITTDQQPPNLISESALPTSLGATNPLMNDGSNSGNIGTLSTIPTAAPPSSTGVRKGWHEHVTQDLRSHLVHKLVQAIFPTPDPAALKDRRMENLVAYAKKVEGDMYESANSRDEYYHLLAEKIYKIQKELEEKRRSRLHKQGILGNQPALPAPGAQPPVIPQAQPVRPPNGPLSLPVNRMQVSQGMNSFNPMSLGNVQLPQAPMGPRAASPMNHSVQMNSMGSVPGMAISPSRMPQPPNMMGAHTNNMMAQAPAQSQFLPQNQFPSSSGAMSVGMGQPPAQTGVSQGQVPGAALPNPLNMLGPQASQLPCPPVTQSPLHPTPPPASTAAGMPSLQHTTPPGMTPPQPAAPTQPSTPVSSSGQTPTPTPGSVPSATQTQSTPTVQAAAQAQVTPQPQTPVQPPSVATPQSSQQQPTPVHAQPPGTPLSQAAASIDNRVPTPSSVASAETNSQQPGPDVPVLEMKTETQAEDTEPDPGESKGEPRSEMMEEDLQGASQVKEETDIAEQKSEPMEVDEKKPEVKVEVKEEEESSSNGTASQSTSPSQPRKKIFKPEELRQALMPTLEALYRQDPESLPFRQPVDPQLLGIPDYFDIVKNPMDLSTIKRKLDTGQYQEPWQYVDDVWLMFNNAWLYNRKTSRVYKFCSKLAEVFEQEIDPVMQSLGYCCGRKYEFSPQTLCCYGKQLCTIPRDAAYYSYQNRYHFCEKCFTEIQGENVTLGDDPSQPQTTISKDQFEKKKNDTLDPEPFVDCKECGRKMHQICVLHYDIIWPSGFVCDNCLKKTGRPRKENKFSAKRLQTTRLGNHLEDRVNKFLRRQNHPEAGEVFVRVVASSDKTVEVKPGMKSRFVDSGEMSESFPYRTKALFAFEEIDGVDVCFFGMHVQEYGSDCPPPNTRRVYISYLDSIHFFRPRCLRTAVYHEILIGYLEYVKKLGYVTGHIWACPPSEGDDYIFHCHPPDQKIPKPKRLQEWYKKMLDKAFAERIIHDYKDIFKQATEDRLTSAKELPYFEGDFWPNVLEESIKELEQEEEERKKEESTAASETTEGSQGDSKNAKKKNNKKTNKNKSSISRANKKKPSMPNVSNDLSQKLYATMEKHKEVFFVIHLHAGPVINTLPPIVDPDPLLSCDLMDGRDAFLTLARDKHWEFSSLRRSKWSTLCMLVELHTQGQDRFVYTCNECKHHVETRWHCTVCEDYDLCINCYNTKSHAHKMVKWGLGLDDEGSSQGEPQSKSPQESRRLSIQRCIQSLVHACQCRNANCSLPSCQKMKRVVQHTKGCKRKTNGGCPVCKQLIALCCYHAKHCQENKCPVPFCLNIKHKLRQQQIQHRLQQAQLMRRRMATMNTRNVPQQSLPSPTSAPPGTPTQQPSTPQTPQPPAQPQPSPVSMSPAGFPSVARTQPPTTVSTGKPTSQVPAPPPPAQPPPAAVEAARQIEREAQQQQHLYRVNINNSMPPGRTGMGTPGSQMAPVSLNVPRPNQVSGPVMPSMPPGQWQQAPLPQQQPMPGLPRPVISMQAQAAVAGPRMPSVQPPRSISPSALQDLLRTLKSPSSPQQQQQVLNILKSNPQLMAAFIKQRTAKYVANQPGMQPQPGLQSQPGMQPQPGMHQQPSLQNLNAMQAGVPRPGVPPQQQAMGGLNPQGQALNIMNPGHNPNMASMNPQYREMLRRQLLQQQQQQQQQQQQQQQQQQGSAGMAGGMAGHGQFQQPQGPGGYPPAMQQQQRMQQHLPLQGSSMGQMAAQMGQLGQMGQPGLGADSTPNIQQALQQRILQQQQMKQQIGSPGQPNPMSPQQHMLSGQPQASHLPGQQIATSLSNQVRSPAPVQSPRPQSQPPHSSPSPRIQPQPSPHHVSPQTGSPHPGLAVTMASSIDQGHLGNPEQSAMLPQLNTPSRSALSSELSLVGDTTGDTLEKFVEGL
test.protocol: CREBBP DiscoverX BROMOscan
pKd: −log10 of the molar value.
property.name: pKd

COCc1nc2cnc3cc(-c4c(C)noc4C)c(OC[C@H]4CCNC4)cc3c2n1[C@H](C)c1ccccc1 = 5.42

* * *

target.system: Alpha-1B adrenergic receptor (Homo sapiens)
Sequence (P35368 whole entry): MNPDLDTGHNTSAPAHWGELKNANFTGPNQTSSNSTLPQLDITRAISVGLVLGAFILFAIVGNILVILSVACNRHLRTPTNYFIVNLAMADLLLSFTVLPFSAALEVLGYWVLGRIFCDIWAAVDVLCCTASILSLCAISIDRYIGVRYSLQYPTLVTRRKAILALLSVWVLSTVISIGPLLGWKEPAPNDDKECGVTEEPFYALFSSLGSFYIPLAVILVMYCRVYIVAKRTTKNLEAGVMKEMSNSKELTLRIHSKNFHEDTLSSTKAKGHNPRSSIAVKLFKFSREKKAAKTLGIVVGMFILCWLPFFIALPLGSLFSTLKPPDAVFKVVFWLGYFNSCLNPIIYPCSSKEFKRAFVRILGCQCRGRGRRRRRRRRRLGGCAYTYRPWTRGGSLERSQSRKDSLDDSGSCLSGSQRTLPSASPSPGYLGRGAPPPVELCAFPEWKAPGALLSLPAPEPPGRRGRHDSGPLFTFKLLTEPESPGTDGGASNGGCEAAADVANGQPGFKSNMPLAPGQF
test.protocol: Cross screening panel
property.name: IC50

COCc1nc2cnc3cc(-c4c(C)noc4C)c(OC[C@H]4CCNC4)cc3c2n1[C@H](C)c1ccccc1 = > 25.1 µM

* * *

target.system: GABA-A receptor; anion channel
test.protocol: GPCRScan assay: inhibition of GABAA/BZP
Assay type: protein-complex assay, Rattus norvegicus
Set-up: radioligand conc. used [nm] 0.6 – 4.0, parental cells brain tissue
pKi: −log10 of the molar value.
property.name: pKi

COCc1nc2cnc3cc(-c4c(C)noc4C)c(OC[C@H]4CCNC4)cc3c2n1[C@H](C)c1ccccc1 = 5.71

* * *

target.system: UniProt Q13224
property.name: IC50

COCc1nc2cnc3cc(-c4c(C)noc4C)c(OC[C@H]4CCNC4)cc3c2n1[C@H](C)c1ccccc1 [GSK778] = > 50.1 µM
